Listing of recorded pKi by entry.
Molecular target: Protein kinase C alpha type (Homo sapiens)
Assay: Displacement of [3H-20]-PDBU from recombinant Protein kinase C alpha
pKi: −log10 of the molar value.

| Test smiles | pKi |
| --- | --- |
| CCCCCCCC/C=C\CCCCCCCC/C=C1\C[C@@](CO)(COC(C)=O)OC1=O | 7.89 |
| CCCCCCCC/C=C\CCCCCCCC/C=C1/C[C@](/C=C/C(=O)OC)(CO)OC1=O | 7.96 |
| CCCCCCCC/C=C\CCCCCCCC/C=C1/C[C@@](CO)(COC(C)=O)OC1=O | 7.92 |
| CCCCCCCC/C=C\CCCCCCCC/C=C1\C[C@](/C=C/C(=O)OC)(CO)OC1=O | 7.70 |

// provenance: ChEMBL document CHEMBL1129300
